Biological target: Mot3 (UniProt P54785)
Sequence: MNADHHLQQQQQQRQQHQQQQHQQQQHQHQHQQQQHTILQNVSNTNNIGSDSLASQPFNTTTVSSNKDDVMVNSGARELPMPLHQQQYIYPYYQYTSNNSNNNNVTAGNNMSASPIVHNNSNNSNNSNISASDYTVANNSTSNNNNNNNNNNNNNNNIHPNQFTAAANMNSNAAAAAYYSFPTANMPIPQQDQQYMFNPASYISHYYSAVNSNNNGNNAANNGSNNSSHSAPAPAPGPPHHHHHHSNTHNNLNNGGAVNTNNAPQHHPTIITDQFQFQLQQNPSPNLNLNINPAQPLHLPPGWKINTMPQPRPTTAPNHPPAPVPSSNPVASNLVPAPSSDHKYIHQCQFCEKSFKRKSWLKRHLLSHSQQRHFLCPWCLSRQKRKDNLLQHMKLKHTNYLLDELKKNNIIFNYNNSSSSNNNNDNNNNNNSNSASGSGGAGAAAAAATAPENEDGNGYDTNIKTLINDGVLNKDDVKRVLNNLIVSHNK
Test: PBM E-score (8-mer binding enrichment) (E-score (-0.5 to 0.5)); higher = stronger / more preferred TF binding
Settings: protein concentration: 200 nM; construct: GST-full length
Whole data set: some 33,000 sequences, median “E-score (-0.5 to 0.5)” near -0.035, cut for the highest 2% near 0.34. This is one part of a sample in which the highest values are shown more often than they occur.
Outcome measure: PBM E-score
Answer with the value's number alone.

So what does the record say about PBM E-score for TGCAGGCA ? 0.484

Proceed to CACGTAAA 0.339

Proceed to AAGCCACT -0.172

Proceed to CATGCATG 0.0529

Proceed to AGGACACT -0.159

Proceed to CAGGCATG 0.358

Proceed to GGCAGGCC -0.165

Proceed to CTTACATC 0.163

Proceed to AGTAGGAC -0.258

Proceed to ATTACATG 0.435

Proceed to CCTCGAGG -0.336

Proceed to CTGAACCA 0.0648

Proceed to AACGGTTC -0.172

Proceed to ACAAAGCA 0.168

Proceed to AGTACATC 0.166

Proceed to GTTACATA 0.333

Proceed to AACATGTT 0.387

Proceed to CCGTTCTA 0.17

Proceed to CTAGTTTC -0.178

Proceed to CGATGGGA -0.272

Proceed to ATCGAACC -0.089

Proceed to ACTACATC 0.173

Proceed to AGCAGGCA 0.483

Proceed to AACATGTC 0.296

Proceed to CAGGCATA 0.319

Proceed to CGTAGGAC -0.166

Proceed to ATTACATA 0.406

Proceed to GGCAGGTA 0.277

Proceed to CGTAGGAA 0.351

Proceed to TGCAGCCA -0.192

Proceed to CCCAGCGC -0.0444

Proceed to GGTTTTAC 0.154

Proceed to AGTAGGAA 0.403

Proceed to ACTACATG 0.362

Proceed to CACTGTGA -0.103

Proceed to TAGTGGAA -0.00095

Proceed to ATGAAAGC 0.103

Proceed to AAGATGTA 0.194

Proceed to AGTACATG 0.289

Proceed to GAGGCATC 0.145

Proceed to TGCAGACA 0.0246

Proceed to AACATGTA 0.42

Proceed to CGAGAGAG -0.145

Proceed to TGTAGGAA 0.406

Proceed to GCAGACAC -0.00428

Proceed to GGTAGGAC -0.172
